Below, each entry is listed alongside its reported logD.
assay: Partition coefficient (logD) (octanol/citric acid-phosphate buffer)

{"Compound": "CC(C)CC(NC(=O)[C@H](Cc1c[nH]cn1)NC(=O)[C@H](Cc1ccccc1)NC(=O)OC(C)(C)C)C(O)CC(=O)N[C@@H](CC(C)C)C(=O)NCC(N)c1ccccn1 (stereo partly drawn)", "logD": "> 2"}
{"Compound": "CC(C)CC(NC(=O)[C@H](Cc1c[nH]cn1)NC(=O)[C@H](Cc1ccccc1)NC(=O)OC(C)(C)C)C(O)CC(=O)N[C@@H](CC(C)C)C(=O)NCc1ccncc1 (stereo partly drawn)", "logD": "> 2"}
{"Compound": "CC(C)CC(NC(=O)[C@H](Cc1c[nH]cn1)NC(=O)[C@H](Cc1ccccc1)NC(=O)OC(C)(C)C)C(O)CC(=O)N[C@@H](CC(C)C)C(=O)NCc1ccccn1 (stereo partly drawn)", "logD": "> 2"}
